Source of measurements: patent US20260124170A1

- SYSTEM UNDER TEST: SGLT1 (Homo sapiens, UniProt P13866)
- Construct: expressed in transfected cells
- Sequence (P13866 1-664): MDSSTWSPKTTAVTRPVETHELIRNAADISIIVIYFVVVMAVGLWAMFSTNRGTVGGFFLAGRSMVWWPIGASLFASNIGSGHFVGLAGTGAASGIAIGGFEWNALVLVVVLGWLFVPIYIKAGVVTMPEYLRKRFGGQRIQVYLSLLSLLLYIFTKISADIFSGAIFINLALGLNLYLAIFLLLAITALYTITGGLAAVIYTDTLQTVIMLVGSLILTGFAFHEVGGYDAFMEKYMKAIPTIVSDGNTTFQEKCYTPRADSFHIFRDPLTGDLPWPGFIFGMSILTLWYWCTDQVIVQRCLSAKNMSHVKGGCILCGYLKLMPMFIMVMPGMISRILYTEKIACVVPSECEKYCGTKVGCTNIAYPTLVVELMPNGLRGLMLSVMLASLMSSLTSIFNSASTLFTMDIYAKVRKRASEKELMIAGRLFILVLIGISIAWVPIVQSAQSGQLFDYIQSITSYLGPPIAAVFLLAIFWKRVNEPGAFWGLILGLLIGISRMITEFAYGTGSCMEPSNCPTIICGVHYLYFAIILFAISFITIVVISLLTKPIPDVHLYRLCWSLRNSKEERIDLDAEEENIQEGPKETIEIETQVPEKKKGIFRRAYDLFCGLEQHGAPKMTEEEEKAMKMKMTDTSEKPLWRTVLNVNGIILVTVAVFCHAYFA
- TEST DESCRIPTION: SGLT1 inhibition with varied substrate AMG concentration (Dixon / L-B plot)
- Format: cell-based
- TEST CONTEXT: from slope of L-B plot, CHO-SGLT1
ASSAY ENDPOINT: Ki (nM)

COMPOUND: OC[C@H]1O[C@@H](c2cc(Cc3ccc(C4CC4)cc3)c(Cl)c3c2CC(O)O3)[C@H](O)[C@@H](O)[C@@H]1O (stereo partly drawn)
MEASUREMENT UNITS: nM
Ki: 84.8

a = OC[C@H]1O[C@@H](c2cc(Cc3ccc(C4CC4)cc3)c(Cl)c3c2CCO3)[C@H](O)[C@@H](O)[C@@H]1O
b = OC[C@H]1O[C@@H](c2cc(Cc3ccc(C4(O)CC4)cc3)c(Cl)c3c2CCO3)[C@H](O)[C@@H](O)[C@@H]1O
// compare: a vs b , metric Ki, want the smaller Answer with the label corresponding to your selection.
a
(a: 495 nM, b: 1870 nM)
